For each record, write down the corresponding ΔTm.
- Tgt: Mitogen-activated protein kinase kinase kinase 5 (Homo sapiens) (UniProt Q99683)
- Sequence (whole entry): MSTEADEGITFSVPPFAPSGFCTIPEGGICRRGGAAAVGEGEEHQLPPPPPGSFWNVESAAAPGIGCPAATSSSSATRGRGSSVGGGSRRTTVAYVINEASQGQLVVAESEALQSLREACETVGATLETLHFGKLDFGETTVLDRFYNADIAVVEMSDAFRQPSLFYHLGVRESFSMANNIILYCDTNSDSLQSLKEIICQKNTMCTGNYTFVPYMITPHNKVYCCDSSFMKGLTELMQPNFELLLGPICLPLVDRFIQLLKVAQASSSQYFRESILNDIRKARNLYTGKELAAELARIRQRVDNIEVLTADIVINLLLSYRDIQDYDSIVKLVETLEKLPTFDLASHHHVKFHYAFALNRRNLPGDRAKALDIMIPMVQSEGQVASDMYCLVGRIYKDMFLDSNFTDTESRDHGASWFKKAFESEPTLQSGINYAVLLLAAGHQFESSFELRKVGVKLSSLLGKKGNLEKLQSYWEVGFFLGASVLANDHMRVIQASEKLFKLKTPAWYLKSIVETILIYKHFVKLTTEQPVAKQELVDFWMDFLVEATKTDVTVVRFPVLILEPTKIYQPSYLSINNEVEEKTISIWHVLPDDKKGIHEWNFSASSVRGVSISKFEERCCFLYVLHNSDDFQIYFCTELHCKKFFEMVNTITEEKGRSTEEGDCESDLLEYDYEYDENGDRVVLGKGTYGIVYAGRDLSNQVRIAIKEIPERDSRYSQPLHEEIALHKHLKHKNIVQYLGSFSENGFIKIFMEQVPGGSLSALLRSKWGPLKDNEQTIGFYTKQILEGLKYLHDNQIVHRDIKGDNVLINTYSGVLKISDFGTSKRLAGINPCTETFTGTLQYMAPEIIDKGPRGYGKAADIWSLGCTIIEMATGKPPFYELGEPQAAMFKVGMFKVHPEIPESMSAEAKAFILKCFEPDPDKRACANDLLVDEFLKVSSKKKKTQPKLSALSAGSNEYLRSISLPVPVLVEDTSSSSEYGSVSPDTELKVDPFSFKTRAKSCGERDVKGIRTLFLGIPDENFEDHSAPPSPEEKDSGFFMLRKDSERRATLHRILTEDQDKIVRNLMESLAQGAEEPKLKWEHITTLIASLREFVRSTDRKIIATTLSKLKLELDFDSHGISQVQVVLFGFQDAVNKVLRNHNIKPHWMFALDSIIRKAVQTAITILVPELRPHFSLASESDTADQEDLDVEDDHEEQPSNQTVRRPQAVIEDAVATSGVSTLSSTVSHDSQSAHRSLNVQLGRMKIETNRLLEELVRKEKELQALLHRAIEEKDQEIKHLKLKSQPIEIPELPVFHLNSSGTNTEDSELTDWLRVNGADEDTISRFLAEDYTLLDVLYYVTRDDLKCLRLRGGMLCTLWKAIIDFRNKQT
Give me the value, and tack the unit on after it.

Ic1cccc(CSc2nnc(-c3ccncc3)o2)c1	0.8 °C
CN1CCc2[nH]c(=S)c(C#N)c(-c3cccs3)c2C1	4.7 °C
O=[N+]([O-])c1ccc(-c2nc(-c3ccc(F)cc3)c(-c3ccncc3)[nH]2)cc1	-0.3 °C

Answer for every listed entry: what is its ΔTm? The entries follow.
1. O=C1c2ccccc2-c2n[nH]c3cccc1c23
2. Cc1cncc2cccc(S(=O)(=O)N3CCCNC[C@@H]3C)c12
3. O=C1Nc2ccccc2/C1=C1/Nc2ccccc2/C1=N\O
4. N#C/C(=C1/Nc2ccccc2S1)c1ccnc(NCCc2cccnc2)n1
5. Nc1cc2ncnc(Nc3cccc(Br)c3)c2cc1N
6. O=S(=O)(NCCNC/C=C/c1ccc(Br)cc1)c1cccc2cnccc12
7. O=C(O)c1cc(N(Cc2ccccc2O)Cc2cc(O)ccc2O)ccc1O

OUT:
1: 8.8 °C; 2: 1.8 °C; 3: 5.6 °C; 4: 3.6 °C; 5: 0.4 °C; 6: -0.3 °C; 7: 0.2 °C

IN: Entry O=c1c(O)c(-c2ccc(O)c(O)c2)oc2cc(O)cc(O)c12 : reported ΔTm = ?
OUT: 3.4 °C

Origin of measurements: ChEMBL document CHEMBL1145498
